For each record, write down the corresponding MIC.
Test system: E. coli BW25113
Type: cell-based, Escherichia coli
Settings: Table 3; E. coli BW25113 wild type; Mueller-Hinton-II, ~10^5 CFUs/ml, 16–20 h; duplicates (*) or triplicates
Where no end group is shown, it is not given here.

{"construct-sequence": "KLRKLFRKLLKLIRKLLR [Cap11-1-18 m^2]", "measured-value": "8 to 16 µg/mL"}

For each of the sequences below, state MIC.
1. SWLSKTAKKLENSAKKRISEGIAIAIQGGPR [Cecropin P1]
2. GLRKRLRKFRNKIKEKLKKIGQKIQGLLPKLAPRTDY [Cap18]
3. GLRKKFRKTRKRIQKLGRKIGKTGRKVWKAWREYGQIPYPCRI [Cap11]

output:
1. 16 to 32 µg/mL
2. 4 to 8 µg/mL
3. 8 µg/mL
